biological target: GLP-1 receptor (GLP-1R), primary cAMP assay cell line (human, UniProt P43220 24-463); assay: cell-based or functional assay
Starred links: 1 amine or outer side, 2 acyl side, 3 side chain; linkers in the order of their positions; H or OH if unused. Non-standard residues stand in square brackets, D forms with d. Groups on a side chain read outwards from the residue. Primed or numbered codes have the meaning given here. No end group written: not given here. *: point of attachment. γGlu = O=C(O)[C@H](CCC(=O)[*:2])N[*:1]; αMeF = C[C@](N)(Cc1ccccc1)C(=O)O; αMeK = C[C@](N)(CCCCN)C(=O)O; Lauroyl = CCCCCCCCCCCC(=O)*; αMeS = C[C@](N)(CO)C(=O)O; PEG2′ = not defined here; Aib = CC(C)(N)C(=O)O
EXPERIMENTAL READOUT: cAMP Primary assay EC50, Mean pM GLP-1R (pM)
Write the number in pM without appending the unit.

// cAMP Primary assay EC50, Mean pM GLP-1R value for H[Aib]EGS[αMeF]TSDVSK([PEG2′-PEG2′-γGlu-Lauroyl])YLEGEK([PEG2′-PEG2′-γGlu-Lauroyl])A[αMeK]EFIAK([PEG2′-PEG2′-γGlu-Lauroyl])VVEGG-NH2 [SEQ ID NO: 461] : 110

// cAMP Primary assay EC50, Mean pM GLP-1R value for H[Aib]EGS[αMeF]TSDV[αMeS]SK([PEG2′-PEG2′-γGlu-Lauroyl])LEK([PEG2′-PEG2′-γGlu-Lauroyl])EAA[αMeK]EFIAK([PEG2′-PEG2′-γGlu-Lauroyl])VVEGG-NH2 [SEQ ID NO: 463] : 82

// cAMP Primary assay EC50, Mean pM GLP-1R value for H[Aib]EGS[αMeF]TSDV[αMeS]SK([PEG2′-PEG2′-γGlu-Lauroyl])LEGK([PEG2′-PEG2′-γGlu-Lauroyl])AA[αMeK]EFIAFK([PEG2′-PEG2′-γGlu-Lauroyl])VEGG-NH2 [SEQ ID NO: 480] : 57.5

// cAMP Primary assay EC50, Mean pM GLP-1R value for H[Aib]EGS[αMeF]TSDK([PEG2′-PEG2′-γGlu-Lauroyl])SSYLEGEK([PEG2′-PEG2′-γGlu-Lauroyl])A[αMeK]EFIK([PEG2′-PEG2′-γGlu-Lauroyl])FVVEGG-NH2 [SEQ ID NO: 441] : 176

// cAMP Primary assay EC50, Mean pM GLP-1R value for H[Aib]EGS[αMeF]TSDVSK([PEG2′-PEG2′-γGlu-Lauroyl])YLEGK([PEG2′-PEG2′-γGlu-Lauroyl])AA[αMeK]EFIAFK([PEG2′-PEG2′-γGlu-Lauroyl])VEGG-NH2 [SEQ ID NO: 476] : 216

// cAMP Primary assay EC50, Mean pM GLP-1R value for H[Aib]EGS[αMeF]TSDVSK([PEG2′-PEG2′-γGlu-Lauroyl])YLEGK([PEG2′-PEG2′-γGlu-Lauroyl])AA[αMeK]EFIAK([PEG2′-PEG2′-γGlu-Lauroyl])VVEGG-NH2 [SEQ ID NO: 460] : 78.1

// cAMP Primary assay EC50, Mean pM GLP-1R value for H[Aib]EGS[αMeF]TSDK([PEG2′-PEG2′-γGlu-Lauroyl])SSYLEK([PEG2′-PEG2′-γGlu-Lauroyl])EAA[αMeK]EFIAFK([PEG2′-PEG2′-γGlu-Lauroyl])VEGG-NH2 [SEQ ID NO: 471] : 374

// cAMP Primary assay EC50, Mean pM GLP-1R value for H[Aib]EGS[αMeF]TSDV[αMeS]SYK([PEG2′-PEG2′-γGlu-Lauroyl])EK([PEG2′-PEG2′-γGlu-Lauroyl])EAA[αMeK]EFIAK([PEG2′-PEG2′-γGlu-Lauroyl])VVEGG-NH2 [SEQ ID NO: 467] : 55.4

// cAMP Primary assay EC50, Mean pM GLP-1R value for H[Aib]EGS[αMeF]TSDV[αMeS]SK([PEG2′-PEG2′-γGlu-Lauroyl])LEGK([PEG2′-PEG2′-γGlu-Lauroyl])AA[αMeK]EFIAK([PEG2′-PEG2′-γGlu-Lauroyl])VVEGG-NH2 [SEQ ID NO: 464] : 30.3

// cAMP Primary assay EC50, Mean pM GLP-1R value for H[Aib]EGS[αMeF]TSDK([PEG2′-PEG2′-γGlu-Lauroyl])SSYLEGK([PEG2′-PEG2′-γGlu-Lauroyl])AA[αMeK]EFIK([PEG2′-PEG2′-γGlu-Lauroyl])FVVEGG-NH2 [SEQ ID NO: 440] : 130

// cAMP Primary assay EC50, Mean pM GLP-1R value for H[Aib]EGS[αMeF]TSDV[αMeS]SK([PEG2′-PEG2′-γGlu-Lauroyl])LEGEK([PEG2′-PEG2′-γGlu-Lauroyl])A[αMeK]EFIK([PEG2′-PEG2′-γGlu-Lauroyl])FVVEGG-NH2 [SEQ ID NO: 449] : 246

// cAMP Primary assay EC50, Mean pM GLP-1R value for H[Aib]EGS[αMeF]TSDV[αMeS]SK([PEG2′-PEG2′-γGlu-Lauroyl])LEGEAA[αMeK]K([PEG2′-PEG2′-γGlu-Lauroyl])FIAK([PEG2′-PEG2′-γGlu-Lauroyl])VVEGG-NH2 [SEQ ID NO: 466] : 22.4

// cAMP Primary assay EC50, Mean pM GLP-1R value for H[Aib]EGS[αMeF]TSDVSK([PEG2′-PEG2′-γGlu-Lauroyl])YLEGEAA[αMeK]K([PEG2′-PEG2′-γGlu-Lauroyl])FIAK([PEG2′-PEG2′-γGlu-Lauroyl])VVEGG-NH2 [SEQ ID NO: 462] : 47

// cAMP Primary assay EC50, Mean pM GLP-1R value for H[Aib]EGS[αMeF]TSDVSK([PEG2′-PEG2′-γGlu-Lauroyl])YLEK([PEG2′-PEG2′-γGlu-Lauroyl])EAA[αMeK]EFIAFK([PEG2′-PEG2′-γGlu-Lauroyl])VEGG-NH2 [SEQ ID NO: 475] : 288
